For each record, write down the corresponding glass transition temperature.
Answers are plain numbers, in °C.

Sample records with glass transition temperature:
[Q] Query: glass transition temperature; subject: *CCC/C=C(/*)c1ccc(OC)cc1 (repeat unit)
[A] 11.00

[Q] Next entry: *Oc1ccc(C(C)(C)c2ccc(OC(=O)c3ccc(C(C)(C)c4ccc(C(*)=O)cc4)cc3)cc2)cc1 (repeat unit)
[A] 230.00

[Q] Next entry: *CCN(*)C(=O)c1ccc(F)cc1 (repeat unit)
[A] 104.00

[Q] Next entry: *c1cccc(P(C)(=O)c2cccc(N3C(=O)c4ccc(NC(=O)OCCOc5ccc(C(c6ccc(OCCOC(=O)Nc7ccc8c(c7)C(=O)N(*)C8=O)cc6)(C(F)(F)F)C(F)(F)F)cc5)cc4C3=O)c2)c1 (repeat unit)
[A] 204.00

New cases:
[Q] Query: glass transition temperature; subject: *CC(*)(C)C(=O)OCCCCCC (repeat unit) [poly(hexyl methacrylate)]
[A] -6.6

---

For each record, write down the corresponding glass transition temperature.
Form entry: enter the amount, then its unit.

[Q] Query: glass transition temperature; subject: *c1ccc(-c2c(-c3ccc(-c4ccccc4)cc3)cc(-c3ccc(OCCCCCCOc4ccc(-c5cc(-c6ccc(-c7ccccc7)cc6)c(-c6ccc(-n7c(=O)c8cc9c(=O)n(*)c(=O)c9cc8c7=O)cc6)c(-c6ccc(-c7ccccc7)cc6)c5)cc4)cc3)cc2-c2ccc(-c3ccccc3)cc2)cc1 (repeat unit)
[A] 128.50 °C

[Q] Next entry: *Nc1ccc(NC(=O)c2ccc(NC(=O)CCCCCCCCCCCCC(=O)Nc3ccc(C(*)=O)cc3)cc2)cc1C(=O)OCCCCCCCCCCCCCC (repeat unit)
[A] 204.50 °C

# input for lookup
[Q] Query: glass transition temperature; subject: *CC(*)OC(F)(C(F)(F)F)C(F)(F)F (repeat unit)
[A] 65.00 °C

---

For each record, write down the corresponding glass transition temperature.
Numbers only, in °C.

[Q] Query: glass transition temperature; subject: *CC(*)OC(=O)c1ccc(OC(=O)CCC)cc1 (repeat unit)
[A] 61.00

[Q] Next entry: *CCCCCCCCCc1nc2ccc(-c3ccc4nc(*)oc4c3)cc2o1 (repeat unit)
[A] 64.00

[Q] Next entry: *CC(*)C(=O)OCCOC(F)(F)C(F)F (repeat unit)
[A] -22.00

[Q] Next entry: *CCCS* (repeat unit)
[A] -53.50

[Q] Next entry: *c1cccc(N2C(=O)c3ccc(Oc4ccc(-c5ccc(Oc6ccc7c(c6)C(=O)N(*)C7=O)cc5)cc4)cc3C2=O)c1 (repeat unit)
[A] 247.00

[Q] Next entry: *Oc1cccc(Oc2ccc(C(=O)c3ccc(NC(=O)c4cccc(C(=O)Nc5ccc(C(=O)c6ccc(*)cc6)cc5)c4)cc3)cc2)c1 (repeat unit)
[A] 214.00

# input for lookup
[Q] Query: glass transition temperature; subject: *c1cccc(P(=O)(c2ccccc2)c2cccc(N3C(=O)c4ccc(NC(=O)OCCOc5ccc(C(C)(C)c6ccc(OCCOC(=O)Nc7ccc8c(c7)C(=O)N(*)C8=O)cc6)cc5)cc4C3=O)c2)c1 (repeat unit)
[A] 220.00

---

endpoint: glass transition temperature (°C)
Answers are plain numbers, in °C.

Sample records with glass transition temperature:
[Q] Query: glass transition temperature; subject: *CCCCCC(=O)Nc1ccc(Oc2cccc(NC(=O)CCCCCN3C(=O)c4ccc(C(=O)c5ccc6c(c5)C(=O)N(*)C6=O)cc4C3=O)c2)cc1 (repeat unit)
[A] 170.00

[Q] Next entry: *CCOCCOCCOCCOCCOCCOCCOCCOCCOCCOC(=O)c1ccc(-c2ccc(-c3ccc(C(=O)O*)cc3)cc2)cc1 (repeat unit)
[A] 40.00

[Q] Next entry: *CC(*)C(=O)OCCCOC (repeat unit)
[A] -66.50

For every record below, what is its glass transition temperature?
1. *CC(*)(C)C(=O)OCCC(F)(F)C(F)(F)C(F)(F)C(F)(F)C(F)(F)C(F)(F)C(F)(F)C(F)(F)F (repeat unit)
2. *Oc1cccc(Oc2cccc(*)n2)c1 (repeat unit)
3. *CC(*)(C)C(=O)OCc1ccc(OCCOCCOCCOCC)c(OCCOCCOCCOCC)c1 (repeat unit)
4. *c1ccc(-c2ccc(-c3ccc(-c4ccc(-c5cc(-c6ccccc6)c6cc(Oc7ccc8nc(*)cc(-c9ccccc9)c8c7)ccc6n5)cc4)cc3)cc2)cc1 (repeat unit)
5. *Oc1ccc(Oc2ccc(C(=O)c3cccc4cccc(C(=O)c5ccc(*)cc5)c34)cc2)cc1C(C)(C)C (repeat unit)
6. *c1cccc(C(=O)Nc2ccc(Oc3ccc(NC(=O)c4cccc(N5C(=O)c6ccc(-c7cccc8c7C(=O)N(*)C8=O)cc6C5=O)c4)cc3)cc2)c1 (repeat unit)

[A]
47.00
82.00
-92.00
310.00
230.00
291.00

For every record below, what is its glass transition temperature?
1. *c1ccc(Cc2ccc(N3C(=O)N(c4ccc(Cc5ccc(N6C(=O)N(*)C(C)(C)C6=O)cc5)cc4)C(=O)C3(C)C)cc2)cc1 (repeat unit)
2. *c1cc(C(=O)NCCCCCCCCCC)cc(N2C(=O)c3ccc(-c4ccc5c(c4)C(=O)N(*)C5=O)cc3C2=O)c1 (repeat unit)
3. *c1cccc(P(=O)(c2cccc(-n3c(=O)c4cc5c(=O)n(*)c(=O)c5cc4c3=O)c2)c2cc(C(F)(F)F)cc(C(F)(F)F)c2)c1 (repeat unit)

[A]
1. 259.50
2. 245.10
3. 281.00
